System: MCF7
protocolNotes: Cell cycle arrest in human MCF7 cells assessed as accumulation at G0 phase at 5 uM after 24 hrs using propidium iodide staining by flow cytometry relative to control
Type: functional
# Lookup of reported Activity keyed by entry
measurementType: Activity (%)

>  <compound>
COc1cc(C2=NOC(c3cc(OC)c(OC)c(OC)c3)C2)cc(OC)c1O (centres undefined)

>  <observed>
0.5

$$$$
>  <compound>
COc1cc(C2NC(=O)c3ccccc3N2)ccc1OCCCCCOc1c(OC)cc(C2=NOC(c3cc(OC)c(OC)c(OC)c3)C2)cc1OC (centres undefined)

>  <observed>
1.57

$$$$
>  <compound>
COc1ccc(/C=C\c2cc(OC)c(OC)c(OC)c2)cc1O [COMBRETASTATIN A4]

>  <observed>
2.53

$$$$
>  <compound>
COc1cc(C2NC(=O)c3ccccc3N2)ccc1OCCCCCBr (centres undefined)

>  <observed>
1.61

$$$$
